Reference for the values: patent US20230183352A1

# CLDN18.2/CLDN18.1 (MFI ratio) per entry
# TARGET_OR_TEST_SYSTEM: T1, Claudin 18.2 (CLDN18.2), expressed on CHOS-CLDN 18.2 / HEK293-CLDN 18.2 / HCC827-CLDN 18.2 cells (human, UniProt P56856-2 1-261)
# T1 construct: whole, on cells; The species is not repeated for the CHOS-CLDN 18.2 cells; also called claudin-18A2
# TEST_PROTOCOL: FACS, MFI on CHOS-CLDN18.2 over MFI on CHOS-CLDN18.1, 10 µg/ml
// return a plain number; no unit text

[
  {
    "BINDER": "QP14371433 (antibody, human IgG1, kappa, V domains shown, Humanized from QP190191; also called QP14331437) VH: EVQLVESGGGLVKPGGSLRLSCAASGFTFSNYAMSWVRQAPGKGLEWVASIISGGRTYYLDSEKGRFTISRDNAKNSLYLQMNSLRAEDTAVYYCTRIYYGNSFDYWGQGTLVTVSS VL: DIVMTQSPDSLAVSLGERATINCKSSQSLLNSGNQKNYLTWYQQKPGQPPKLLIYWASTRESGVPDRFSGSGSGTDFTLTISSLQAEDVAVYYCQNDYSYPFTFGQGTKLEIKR",
    "CLDN18.2/CLDN18.1 (MFI ratio)": 448
  }
]

Task item: Determine from records and report CLDN18.2/CLDN18.1 (MFI ratio) for QP14581454 (antibody, human IgG1, kappa, V domains shown, Humanized from QP201202) VH: QVQLVQSGAEVKKPGASVKVSCKASGYTFTNYFVHWVKQAPGQGLEWIGYINPYNDDTKYNEKFKGKATLTRDTSTSTVYMELSSLRSEDTAVYYCLSLRFFAYWGQGTLVTVSS VL: DIVMTQSPDSLAVSLGERATISCKSSQSLLNSGNQKNYLTWYQQKPGQAPKLLIYWASTRESGVPDRFSGSGSGTDFTLTISSVQAEDVAVYFCQNDYSYPLTFGGGTKVEIKR
Reply: 506

Task item: Determine from records and report CLDN18.2/CLDN18.1 (MFI ratio) for QP192193 (antibody, human IgG1, V domains shown, Chimeric; also called 40F1; mouse-derived chimeric antibody QP192193) VH: QVQLQQSGAELVRPGSSVKISCKASGYAFSSYWMNWVKQRPGQGLEWIGQIYPGNGDTTYNGKFKGQATLTADKSSSTVYMQLSSLTSEDSAVYFCARFVKGNAMDYWGQGTSVTVSS VL: DIVMTQSPSSLTVTAGEKVTMSCKSSQSLLNSGNQKNYLTWYQQNPGQPPKMLIYWASTRESGVPDRFTGSGSGIDFSLTISSVQAEDLALYYCQNAYSYPFTFGSGTKLEIK
Reply: 627
